- testTarget: Recombinant human DDR1 (Homo sapiens (Human))
- Sequence (Q08345 other isoform, or with tags, fused parts or gaps): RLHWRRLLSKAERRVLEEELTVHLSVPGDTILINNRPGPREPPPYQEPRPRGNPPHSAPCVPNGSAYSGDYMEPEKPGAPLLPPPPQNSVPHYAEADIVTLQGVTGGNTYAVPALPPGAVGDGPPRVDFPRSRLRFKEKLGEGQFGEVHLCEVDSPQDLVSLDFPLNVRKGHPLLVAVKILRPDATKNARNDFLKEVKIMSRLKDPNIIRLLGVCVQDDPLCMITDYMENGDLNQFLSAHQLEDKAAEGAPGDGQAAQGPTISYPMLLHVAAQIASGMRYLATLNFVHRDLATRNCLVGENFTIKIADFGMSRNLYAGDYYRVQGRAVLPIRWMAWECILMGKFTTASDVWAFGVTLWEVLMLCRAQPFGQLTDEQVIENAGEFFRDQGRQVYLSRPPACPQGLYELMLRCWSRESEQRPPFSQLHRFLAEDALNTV
- runDescription: LanthaScreen Eu Kinase Binding Assay, DDR1
- conditionContext: DDR1 2.5 nM (aa440-876, GST tag), Kinase Tracer 178 5 nM; read-out: DDR1 pIC50 (converted)

compound: Cn1ncc2cc(Nc3cccc4c3C(=O)N(CC(=O)Nc3cccc(C(C)(C)N)c3)C4)ccc21
testTarget: Recombinant human DDR1 (Homo sapiens (Human))
IC50: 10 to 100 nM

compound: Cn1ncc2cc(Nc3cccc4c3C(=O)N(CC(=O)N3CCC[C@H]3CF)C4)cnc21
testTarget: Recombinant human DDR1 (Homo sapiens (Human))
IC50: 10 to 100 nM

compound: Cc1n[nH]c2cc(Nc3cccc4c3C(=O)N(CC(=O)N3CCO[C@H](C(F)(F)F)C3)C4)cnc12
testTarget: Recombinant human DDR1 (Homo sapiens (Human))
IC50: 10 to 100 nM

compound: Cn1ncc2cc(Nc3cccc4c3C(=O)N(CC(=O)N3CCC[C@H]3C(F)(F)F)C4)ccc21
testTarget: Recombinant human DDR1 (Homo sapiens (Human))
IC50: < 10 nM

compound: Cn1ncc2cc(Nc3cccc4c3C(=O)N(CC(=O)N3CCOC(C(F)(F)F)C3)C4)ccc21 (centres unmarked)
testTarget: Recombinant human DDR1 (Homo sapiens (Human))
IC50: 10 to 100 nM

compound: Cn1ncc2cc(Nc3cccc4c3C(=O)N(CC(=O)N3CCOC[C@@H]3C(F)(F)F)C4)cnc21
testTarget: Recombinant human DDR1 (Homo sapiens (Human))
IC50: ≥ 1000 nM

compound: O=C1c2c(cccc2Nc2cnc3[nH]ncc3c2)CN1CC(=O)N1CCC[C@H]1C(F)(F)F
testTarget: Recombinant human DDR1 (Homo sapiens (Human))
IC50: < 10 nM

compound: Cn1ncc2cc(Nc3cccc4c3C(=O)N(CC(=O)N3CC(C(F)(F)F)C3)C4)ccc21
testTarget: Recombinant human DDR1 (Homo sapiens (Human))
IC50: 10 to 100 nM
